System: CAKI-1 renal
assay: NCI tumour cell line growth inhibition, 48 h; in the data active = GI50 below about 0.43 µM; inactive = the rest
Tick one outcome: yes for active, no for inactive

Short answer needed: outcome of this test for Cn1cc(-c2ccc3nnc(Sc4ccc5ncccc5c4)n3n2)cn1 ?
no

Short answer needed: outcome of this test for CN(C)c1nc2ccccc2c2c1c1c(n2Cc2ccccc2)-c2ccccc2C1=O ?
no

Short answer needed: outcome of this test for c1ccc(-c2nc(N3CCOCC3)c3c4c(sc3n2)CCCCCC4)nc1 ?
no

----------
System: SNB-19 CNS
assay: NCI tumour cell line growth inhibition, 48 h
recorded.metric: TGI

Examples with their reported TGI follow.
| compound | TGI |
| --- | --- |
| NCc1cccc(O)c1O | > 100 µM |
| Cn1c(-c2ccc(/C=N/NC(=S)N/N=C/c3ccc(-c4c[n+]5ccsc5n4C)cc3)cc2)c[n+]2ccsc12 | > 100 µM |
| Cc1ccc(S(=O)CC(CF)OCn2cc(C)c(=O)[nH]c2=O)cc1 (stereo unspecified) | > 100 µM |
| Cc1nn(-c2ccccc2)c(C)c1/C=N/N=C1\S/C(=C\c2ccc(Cl)cc2)C(=O)N1c1ccccc1 | > 100 µM |
| CCc1cc2c(c3c1CCCC3=O)CC1(Cc3ccc(C(=O)OC)cc3C1)C2 (stereo unspecified) | > 100 µM |

I have 6 compounds here; please give me TGI for each one.
1. Cc1cc(OC(=O)NCn2cc(-c3ccccc3)nn2)ccc1Cl
2. c1cncc(CNCc2cccnc2)c1
3. COc1cc(NC(=O)CCSc2nc3ccc(C)cc3c(=O)n2Cc2ccccc2)cc(OC)c1OC
4. COc1ccc(C(SC2C(O)C(CO)OC2n2ccc(=O)[nH]c2=O)(c2ccccc2)c2ccc(OC)cc2)cc1 (stereo unspecified)
5. CCOC(=O)N1CCc2cc(OC)c(OC)cc2/C1=C\c1ccc(OC)c(OC)c1
6. Cc1ccccc1N=C(N)Nc1ccccc1C

1: > 100 µM; 2: > 100 µM; 3: 18.5 µM; 4: 41 µM; 5: > 100 µM; 6: > 100 µM
